The origin of these recorded values is patent US20100172907A1.

In this section, each of the binders is paired with its reported OD ratio 2-7/BSA.
- TGT: T1, BSA-conjugated Aβ heptapeptide AEFRHDC (C-terminal Cys coupled to NSMP-activated BSA)
- T1 construct: also called Peptide 2-7
- T1 peptide: AEFRHDC
- TEST_NAME: ELISA;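 also: ELISA of antibody at 10 or 2 µg/ml binding plate-coated BSA–peptide conjugates, detected with HRP anti-human Ig and TMB colour, mock-treated BSA without peptide as negative control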
QUANTITY_NAME: OD ratio 2-7/BSA

- BINDER: "MS-Roche #7.2.H3 Fab (Fab, V domains shown) VH: QVQLVESGGGLVQPGGSLRLSCAASGFTFSSYAMSWVRQAPGKGLEWVSAINANGYKTYYADSVKGRFTISRDNSKNTLYLQMNSLRAEDTAVYYCARGKGNTHKPYGYVRYFDVWGQGTLVTVSS VL: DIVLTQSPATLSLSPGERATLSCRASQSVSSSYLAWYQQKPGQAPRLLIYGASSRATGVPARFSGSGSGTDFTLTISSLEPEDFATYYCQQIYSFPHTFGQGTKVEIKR"
  RECORDED_NUMBER: 33
- BINDER: "MS-Roche #7.9.H2 Fab (Fab, V domains shown, assembled) VH: QVQLVESGGGLVQPGGSLRLSCAASGFTFSSYAMSWVRQAPGKGLEWVSAINADGNRKYYADSVKGRFTISRDNSKNTLYLQMNSLRAEDTAVYYCARGKGNTHKPYGYVRYFDVWGQGTLVTVSS VL: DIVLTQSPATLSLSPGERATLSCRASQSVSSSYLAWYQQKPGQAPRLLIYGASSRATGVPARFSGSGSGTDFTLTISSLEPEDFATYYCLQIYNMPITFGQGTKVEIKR"
  RECORDED_NUMBER: 35
- BINDER: "MS-Roche #7.2.H5 Fab (Fab, V domains shown) VH: QVQLVESGGGLVQPGGSLRLSCAASGFTFSSYAMSWVRQAPGKGLEWVSAINATGRSKYYADSVKGRFTISRDNSKNTLYLQMNSLRAEDTAVYYCARGKGNTHKPYGYVRYFDVWGQGTLVTVSS VL: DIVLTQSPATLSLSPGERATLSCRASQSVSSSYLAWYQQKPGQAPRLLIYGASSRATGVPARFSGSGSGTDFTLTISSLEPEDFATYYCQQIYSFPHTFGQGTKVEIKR"
  RECORDED_NUMBER: 30
